Some compounds, each annotated with its measured max response.
PROTOCOL TEXT: qHTS RealTime-Glo MT Cell Viability Assay in HEK293 cells - 40 hour (AID 1224874); also: % is scaled to controls: 0 for no effect and ±100 for the full control effect; nearly all actives have a fitted effect of over 50% in size
SETTINGS: RealTime-Glo luminescence; hits give low values
Inconclusive results are not listed.

COMPOUND	max response, %
CC(=O)N(CC(O)CN(C(C)=O)c1c(I)c(C(=O)NCC(O)CO)c(I)c(C(=O)NCC(O)CO)c1I)c1c(I)c(C(=O)NCC(O)CO)c(I)c(C(=O)NCC(O)CO)c1I (stereo not given)	0.602
CCCOc1ccc2c(c1)CC[C@@H]1[C@@H]2CC[C@]2(C)C(OC)CC[C@@H]12 (stereo not given in full)	6.13
NCCC(O)(P(=O)(O)O)P(=O)(O)O	3.89
CCCNC(C)C(=O)Nc1c(C)csc1C(=O)OC (stereo not given)	-5.59
CC(C)OC(C)C	20.1
CCCCC(=O)O[C@]1(C(=O)CO)[C@H](C)C[C@H]2[C@@H]3CCC4=CC(=O)C=C[C@]4(C)[C@@]3(F)[C@@H](O)C[C@@]21C	0.0182
CC(C)C(=O)OC/C=C/c1ccccc1	-2.31
C[C@@H]1CN(c2c(F)c(N)c3c(=O)c(C(=O)O)cn(C4CC4)c3c2F)C[C@H](C)N1	-0.345
CCCOCCC	23.9
O=S(=O)(O)C(F)(F)F	7.92
CC(=O)O[C@H]1CC[C@@]2(C)C(=CC[C@@H]3[C@@H]2CC[C@]2(C)C(C(C)=O)=CC[C@@H]32)C1	-20.5
CCC(=O)O[C@]1(C(=O)SCF)[C@H](C)C[C@H]2[C@@H]3C[C@H](F)C4=CC(=O)C=C[C@]4(C)[C@@]3(F)[C@@H](O)C[C@@]21C	2.57
CC1=CC(=O)CC(C)(C)C1=O	-4.9
CC(=O)Nc1ccc(C)c(Cl)c1	-13.2
O=C1C=CC(=O)O1	12.6
CC(C)C(=O)OCC(C)(C)C(O)C(C)C (stereo not given)	8.54
CC(C)S	0.674
C=CCCCCCCCCO	-15.3
C1CSCCS1	-4.02
CC1=C(O)C(=O)OC1C (stereo not given)	1.31
Clc1cccc(-c2cc(Cl)cc(Cl)c2)c1	-9.77
NNS(=O)(=O)c1ccc(Oc2ccc(S(=O)(=O)NN)cc2)cc1	0.181
OCCN(CCO)c1ccccc1	1.89
CCC(=O)Nc1ccc(O)cc1	2.18
CCOC(=O)C1CC(=O)C(=C(O)C2CC2)C(=O)C1 (stereo not given)	0.979

====

PROTOCOL TEXT: qHTS assay for small molecule disruptors of the mitochondrial membrane potential (AID 720635)
SETTINGS: HepG2 mitochondrial membrane potential, Mito-MPS dye ratio; series mostly up to 83.2 µM
Records with an inconclusive call do not appear. Activity calls are given as the source filed them. Calls come from the whole dose curve; as a rule, active = well fitted inhibition curve with a large enough effect in the signal ratio in the repeat runs; inconclusive = weak or mixed curves, or effect the other way; inactive = flat fitted curve, though single readings scatter; the % refers to the signal ratio.
Outcome codes: 1 for active, -1 for inactive

In [3]: df
Out[3]:
                                   compound  class_name
0  COc1ccccc1N1CCN(CCCNc2cc(=O)n(C)c(=O)n2C)CC1          -1
1                                Oc1ccccc1F          -1
2  CC1=NN(c2cc(Cl)c(S(=O)(=O)O)cc2Cl)C(=O)C1N=Nc1ccc(S(=O)(=O)O)cc1 (configuration not stated)          -1
3                       CCC(=O)Nc1ccc(O)cc1          -1
4                                    CC(C)S          -1
5  CN1CCC[C@@H]1Cc1c[nH]c2ccc(CCS(=O)(=O)c3ccccc3)cc12          -1
6                        Cc1cc2nc(N)sc2cc1C           1

====

PROTOCOL TEXT: qHTS assay for small molecule agonists of the p53 signaling pathway - cell viability (AID 651633); also: nearly all actives have a fitted effect of over 30% in size
SETTINGS: p53RE-bla HCT-116 viability, ATP luminescence, 16 h; series mostly up to 83.3 µM
Results filed as inconclusive are left out. Calls of active or inactive are those of the source. The call rests on the fitted dose curve.
Outcome codes: YES (active), NO (inactive)

>>> print(df.to_string())
                                    molecule  class_name
 0                 Cc1ccc([N+](=O)[O-])cc1Cl          NO
 1                             NC/C=C/C(=O)O          NO
 2  O=c1[nH]cnc2c1ncn2[C@@H]1O[C@H](CO)[C@@H](O)[C@H]1O          NO
 3         CC(C)(C)c1ccc(OC(=O)c2ccccc2O)cc1          NO
 4  CC(C)C[C@H](NC(=O)OCC1c2ccccc2-c2ccccc21)C(=O)O          NO
 5                           Cc1ccc(C)c(N)c1          NO
 6       CCCC1CCC(=O)O1 (stereo unspecified)          NO
 7                CCCCCCCCCCCCOCCOS(=O)(=O)O         YES
 8                          FC(F)(F)c1ccccc1          NO
 9                        Cc1cc2nc(N)sc2cc1C          NO
10  NC1=NCC2c3ccccc3Cc3ccccc3N12 (stereo unspecified)          NO
11             CCN(CC)CCNC(=O)COc1ccc(Cl)cc1          NO
12                              CCOc1ccccc1N          NO
13                       O=C1CCN(c2ccccc2)N1          NO
14       CN(C)CC[C@@H](c1ccc(Cl)cc1)c1ccccn1          NO
15  CCN[C@H]1CN(CCCOC)S(=O)(=O)c2sc(S(N)(=O)=O)cc21          NO
16          CC(C)(CO)[C@@H](O)C(=O)NCCC(=O)O          NO
17                    CC(=O)Nc1ccc(C)c(Cl)c1          NO
18                       CCC(=O)Nc1ccc(O)cc1          NO
19                        CC(=O)OC(C)OC(C)=O          NO
20              Cc1cccc(C)c1NC(=O)CN1CCCCCC1          NO
21              O=C(O)C(=O)Cc1c[nH]c2ccccc12          NO
22  CCCN(CCC)C(=O)C(CCC(=O)O)NC(=O)c1ccccc1 (stereo unspecified)          NO
23                     Nc1cccc(S(=O)(=O)O)c1          NO
24                    CC1=CC(=O)CC(C)(C)C1=O          NO
25                 COc1ccc(Nc2ccc(OC)cc2)cc1          NO
26                             O=CCCc1ccccc1          NO
27         CC(=O)Oc1cc(C(C)C)c(OCCN(C)C)cc1C          NO
28             O=C(Cl)c1cccc([N+](=O)[O-])c1          NO
29                              CCCCCCCCCC#N          NO
30            C=CCc1cc(OC)c(O)c(C(=O)NCCO)c1          NO
31          COc1ccc2nc(NC(=O)Nc3ccccc3)sc2c1          NO
32  CC[C@H]1CC[C@H](NCc2cc3c(cc2OC)[C@H]2C[C@H]2C(=O)N3C)[C@H](c2ccccc2)N1          NO
33  C[C@@H]1CN(c2c(F)c(N)c3c(=O)c(C(=O)O)cn(C4CC4)c3c2F)C[C@H](C)N1          NO
34                Nc1ccc(Oc2ccc(N)c(N)c2)cc1          NO
35  CO[C@@]1(NC(=O)CSCC#N)C(=O)N2C(C(=O)O)=C(CSc3nnnn3C)CS[C@@H]21          NO
36                       CCN(CC)C(=O)N(CC)CC          NO
37               CC(=O)N[C@@H](CC(C)C)C(=O)O          NO
38            COC(C)CCO (stereo unspecified)          NO
39  O=C(O)CN(CCN(CC(=O)O)CC(=O)O)CCN(CC(=O)O)CC(=O)O          NO
40  CN1CCN(c2c(F)cc3c(=O)c(C(=O)O)cn4c3c2SCC4)CC1          NO
41                        CCCCCCCCCC/C=C/C#N          NO
42  CC1=NN(c2cc(Cl)c(S(=O)(=O)O)cc2Cl)C(=O)C1N=Nc1ccc(S(=O)(=O)O)cc1 (stereo unspecified)          NO
43  CCc1cc(Cl)c(OC)c(C(=O)NC[C@@H]2CCCN2CC)c1O          NO
44                               ICCc1ccccc1          NO
45  CC(C)=CCCC(C)CCOC=O (stereo unspecified)          NO
46  CCN1CC(CCN2CCOCC2)C(c2ccccc2)(c2ccccc2)C1=O (stereo unspecified)          NO
47  COc1ccccc1N1CCN(CCCNc2cc(=O)n(C)c(=O)n2C)CC1          NO
48                        COc1cc(C)ccc1C(C)C          NO
49            COC(=O)c1ccc2cc(C(=O)OC)ccc2c1          NO
50                                    CC(C)S          NO
51                 Nc1ccc2ccccc2c1S(=O)(=O)O          NO
52  COc1ccccc1OCC(O)COC(N)=O (stereo unspecified)          NO
53   CCC(=O)c1ccc2c(c1)N(CCCN(C)C)c1ccccc1S2          NO
54                      CCOc1ccc(OCC)c(Cl)c1          NO
55  CN1CCC[C@@H]1Cc1c[nH]c2ccc(CCS(=O)(=O)c3ccccc3)cc12          NO
